experiment: Toxicity in BALB/c mouse assessed as animal's survival rate at 55.5 mg/kg, iv measured for 14 days; type: organism-based; conditions: in vivo, time 14 day
READOUT_LABEL: survival at 336 h (%)

>>> measured_number("CCCCCCCCCCNC(=O)C[N+](C)(C)CCCNC(=O)c1ccc(CN[C@@]2(C)C[C@H](O[C@H]3[C@H](Oc4c5cc6cc4Oc4ccc(cc4Cl)[C@@H](O)[C@@H](NC(=O)[C@@H](CC(C)C)NC)C(=O)N[C@@H](CC(N)=O)C(=O)N[C@H]6C(=O)N[C@H]4C(=O)N[C@H](C(=O)N[C@H](C(=O)O)c6cc(O)cc(O)c6-c6cc4ccc6O)[C@H](O)c4ccc(c(Cl)c4)O5)O[C@H](CO)[C@@H](O)[C@@H]3O)O[C@@H](C)[C@H]2O)cc1")
100
